- test-name: soluble on expression in E. coli; label from the status in PepcDB or PDB records
attribute-measured: soluble on expression in E. coli

Here's what some known entries look like.
[[record]]
sequence_code = "GPLGSCSSPQVEIPTTYSPEKIAQLQVYVNPIAVARDGMEKRLQGLIADQNWVDTQTYIHGPLGQLRRDMLGLASSLLPKDQDKAKTLAKEVFGHLERLDAAAKDRNGSQAKIQYQEALADFDSFLNLLPQAS"
attribute_measured = "soluble on expression in E. coli"
test_result = "soluble"

[[record]]
sequence_code = "MGSDKIHHHHHHMALRIAFLTVGDPQRRTGGYLYHREVFRCWQARNQPVEEIVLGPADVAGQIAASNRAGQLVEAGRYDVIVVDALARAVVAPWLAHWQRLCPLVTLVHELPTVAGASDPREYEWEQMLLRADALVAVSDDGANTLIARGVEAARIHIASGGCDRLLSRMPVGKAREELVIAVAQWIPRKNLAHLVRVWGQVAEHPWRLELIGESDADPVYAGEVWQAIQHCPANVIVRGVLADDELAERYARASLFALPSRFEGYGLVFAEALACGLPVIAGAVGPVPALVGAGGMLVHPDDEQALSVALRTVMRDAHLRQHLSTAARQRASTLPRWQDTAQHLLCAIEWAYAQRHRVST"
attribute_measured = "soluble on expression in E. coli"
test_result = "not soluble"

[[record]]
sequence_code = "MYPHIHRYKFESKNTNRHNHKIIGYTDNMIGIEAFHIHAYYGISSYNGHTHYFSGFTGLPIKTENGHIHRIEGILESASDHEHVYRNYTDENIEYISHSILKHAYV"
attribute_measured = "soluble on expression in E. coli"
test_result = "not soluble"

[[record]]
sequence_code = "MGIGNENKGFITASADALINWVRTGSLWPVTTGLACCAVEMMHAGAARYDLDRFGIVFRPSPRQSDVLIVAGTLCNKMAPALRQVYDQMPDPKWVISMGSCANGGGYYHYSYSVVRGCDRIVPVDIYVPGCPPTAEALVYGIIQLQNKIIRKDTIARK"
attribute_measured = "soluble on expression in E. coli"
test_result = "not soluble"


Exam item: # query: soluble on expression in E. coli of entry `MSLEVNVEGKLEAMQAVVGAKAVPFAGTQAEPIQIAMIYPSADTSDFWARNYIAMTKRLEELGIQFETTEFASRQIEHSLQSTYANQVVQDADLYDFVIFGPSELAIQADNIDKMAASEGFSTFVWAFHTPLKDLKNQPDGWFDFSSAAGALTMCDYMLGRLGNDVTMAMNRGIPGITDDQRSGDFKACVEEKGNWTTIYEHYGEYQREGGFEGTSLILQAYPEATVIHNANTAMAMGSVEAQISVGKEKEVFSTGWGGTGLELDAIRRGELDATPMRMGDDVGAATAEAIKAHLEGRSDELPFVFLGRITVAHDQMSAEEIDALEAEAFRFSGVGALEREGHHHHHH`
Marked response: not soluble

Exam item: Return reported soluble on expression in E. coli; argument: `MRGSVSQEEVKKWAESLENLINHECGLAAFKAFLKSEYSEENIDFWISCEEYKKIKSPSKLSPKAKKIYNEFISVQATKEVNLDSCTREETSRNMLEPTITCFDEAQKKIFNLMEKDSYRRFLKSRFYLDLTNPSSCGAEKQKGAKSSADCTSLVPQCAHHHHHHP`
Marked response: soluble

Exam item: What value of soluble on expression in E. coli has been recorded for this entry: `MGSDKIHHHHHHMLNYHHLRYFWIVAHEGNLTRAARKHNIAQSALSMQISALEEYLGQPLFERAGRRLVLTEAGHIALDFADAIFAKGDELLGTFGRLAEAHQKVLRVGALATLSRNFQVGFLRPLFADPEITVIVRSGTLDELLGSLKLYDLDIVLATGVPNRDHATPWIVHIIDTQPVGLIGQPRSDRYQQPLEVLLQREPLIVPSPESTIRTGFDALVHRLGIRPRIVAEIDDMAMMRLVAREHNGLAVIPPIVVTDELRSGMLVEYAELPELVETFCAITMPRRFPNPLLRLVLPGHTTPE`
Marked response: not soluble

Exam item: Field request: soluble on expression in E. coli | item: `MGHHHHHHSHMDNAVDRHVFYISDGTAITAEVLGHAVMSQFPVTISSITLPFVENESRARAVKDQIDAIYHQTGVRPLVFYSIVLPEIRAIILQSEGFCQDIVQALVAPLQQEMKLDPTPIAHRTHGLNPNNLNKYDARIAAIDYTLAHDDGISLRNLDQAQVILLGVSRCGKTPTSLYLAMQFGIRAANYPFIADDMDNLVLPASLKPLQHKLFGLTIDPERLAAIREERRENSRYASLRQCRMEVAEVEALYRKNQIPWINSTNYSVEEIATKILDIMGLSRRMY`
Marked response: not soluble
